- ASSAYED TARGET: T1, purified EBV gp350/220 (recombinant EBV gp350 ectodomain) (Epstein-Barr virus, UniProt P03200)
- T1 construct: purified EBV gp350 ectodomain protein (AA 4-863); purchased Immune Technology Corporation
- T1 sequence (P03200 4-863): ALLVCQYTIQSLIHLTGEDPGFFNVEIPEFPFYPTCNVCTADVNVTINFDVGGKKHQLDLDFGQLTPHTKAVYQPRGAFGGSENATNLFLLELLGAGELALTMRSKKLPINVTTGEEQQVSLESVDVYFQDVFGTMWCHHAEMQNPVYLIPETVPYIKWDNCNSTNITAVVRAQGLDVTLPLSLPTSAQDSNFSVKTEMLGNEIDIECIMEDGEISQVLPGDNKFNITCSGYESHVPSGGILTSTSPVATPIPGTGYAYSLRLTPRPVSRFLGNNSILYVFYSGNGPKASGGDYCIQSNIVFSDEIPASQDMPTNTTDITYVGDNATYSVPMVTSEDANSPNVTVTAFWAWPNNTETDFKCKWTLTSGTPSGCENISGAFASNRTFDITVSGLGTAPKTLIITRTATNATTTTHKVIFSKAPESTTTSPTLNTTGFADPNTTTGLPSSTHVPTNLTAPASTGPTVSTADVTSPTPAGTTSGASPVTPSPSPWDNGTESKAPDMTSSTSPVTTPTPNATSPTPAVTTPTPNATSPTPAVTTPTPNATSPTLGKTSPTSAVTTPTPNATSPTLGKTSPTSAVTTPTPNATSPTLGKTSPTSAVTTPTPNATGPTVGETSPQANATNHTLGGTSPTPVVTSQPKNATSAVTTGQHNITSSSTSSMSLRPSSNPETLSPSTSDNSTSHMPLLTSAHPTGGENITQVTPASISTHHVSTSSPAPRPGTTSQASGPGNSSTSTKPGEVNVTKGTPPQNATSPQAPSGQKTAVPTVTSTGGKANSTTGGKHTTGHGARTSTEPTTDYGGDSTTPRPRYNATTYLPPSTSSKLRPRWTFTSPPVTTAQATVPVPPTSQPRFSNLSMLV
- ASSAY: Indirect ELISA on recombinant EBV gp350 ectodomain
- Type: binding
- REPORTED CONDITIONS: purified antibodies 10 μg/ml
OBSERVABLE: ELISA binding to purified EBV gp350/220

molecule="HB5: murine anti-EBV gp350 mAb, IgG2a κ; SEQ ID NO: 108 / 109; neutralizing (antibody, V domains shown, heavy chain mAb HB5; light chain mAb HB5, murine anti-EBV gp350 mAb, IgG2a κ; neutralizing) VH: AELVRPGASVKISCKAFGYTFTNHNINWVKQRPGQGLDWIGYINPYNDYTSYNQKFKGKATLTVDKSSNTAYMELSSLTSEDSAVYYCARSEGWLRRGAWFAYWGQGTLVTVSAAKTTAPSVYPLAPVCGDTTGSSVTLG VL: AILSVSPGERVSFSCRASQSIGTSIHWYQQRTNDSPRLLIKYASESISGIPPRFSGSGSGTDFTLSINSVESEDIADYHCQQSNSWPMLTFGAGTKLELKRADAAPTV" experimental_result=+

This collection of values is drawn from patent US12012446B2.
